- measured on: TXA2 synthetase (Homo sapiens, UniProt P24557)
- Construct: from tissue; host or cells: HPM (read as human platelet microsomes)
- Sequence (P24557 1-533): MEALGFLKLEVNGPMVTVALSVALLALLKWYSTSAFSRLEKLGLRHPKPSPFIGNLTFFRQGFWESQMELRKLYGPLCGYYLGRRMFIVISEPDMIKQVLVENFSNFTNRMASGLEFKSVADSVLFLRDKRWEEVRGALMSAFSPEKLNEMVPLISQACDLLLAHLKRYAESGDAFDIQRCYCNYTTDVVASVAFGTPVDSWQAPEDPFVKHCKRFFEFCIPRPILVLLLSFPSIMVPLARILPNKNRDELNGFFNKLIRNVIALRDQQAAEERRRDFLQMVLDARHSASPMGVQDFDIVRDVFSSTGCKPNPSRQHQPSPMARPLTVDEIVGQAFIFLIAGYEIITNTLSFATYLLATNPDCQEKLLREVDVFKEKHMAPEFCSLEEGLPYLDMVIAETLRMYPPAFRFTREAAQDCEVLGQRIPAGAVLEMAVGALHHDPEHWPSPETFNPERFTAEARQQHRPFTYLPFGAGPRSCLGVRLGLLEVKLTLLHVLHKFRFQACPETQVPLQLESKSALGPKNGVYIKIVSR
- protocol summary: TXA2 synthetase inhibition: TXA2 produced by mixing PGH2 and HPM, measured by response of the rabbit aorta
- Format: biochemical
- condition: test compound added to HPM 5 minutes before mixing with PGH2; approximate; read-out: approximate ED50 (upper bound)
Structures can show the parent of a compound that is named as a salt.
metric: IC50

>>> measured_value("O=C(O)c1cc2cc(NCc3cccnc3)ccc2[nH]1 [Sodium Salt]")
"< 3.46 µM"

* * *

- measured on: TXA2 synthetase (Homo sapiens)
- Construct: from tissue; host or cells: HPM (read as human platelet microsomes)
- protocol summary: TXA2 synthetase inhibition: TXA2 produced by mixing PGH2 and HPM, measured by response of the rabbit aorta
- Assay type: biochemical
- condition: test compound added to HPM 5 minutes before mixing with PGH2; approximate; read-out: approximate ED50 (lower bound)
- Procedure: Potential inhibitors were tested by comparing the response of the rabbit aorta to the amount of TXA2 produced by mixing PGH2 and HPM without the test compound in the reaction medium and then the amount of TXA2 produced when the test compound was added to the HPM 5 minutes before the HPM was mixed with PGH2. […] For a discussion of TXA2 synthetase inhibition testing see, e.g., R. Gorman, supra.
Counter-ions that a name gives are not always drawn.
metric: IC50

>>> measured_value("O=C(O)c1cc2cc(NCc3cccnc3)ccc2[nH]1 [Sodium Salt]")
"> 346 nM"
